Data origin: patent US4623662A

Property: IC50; scope: individual compounds
ASSAY_TARGET: fatty acyl CoA:cholesterol acyl transferase (ACAT) (Rattus norvegicus, UniProt Q7TQM4)
Construct: the enzyme was derived from microsomes isolated from rat intestinal mucosal cells
Sequence (Q7TQM4 whole entry): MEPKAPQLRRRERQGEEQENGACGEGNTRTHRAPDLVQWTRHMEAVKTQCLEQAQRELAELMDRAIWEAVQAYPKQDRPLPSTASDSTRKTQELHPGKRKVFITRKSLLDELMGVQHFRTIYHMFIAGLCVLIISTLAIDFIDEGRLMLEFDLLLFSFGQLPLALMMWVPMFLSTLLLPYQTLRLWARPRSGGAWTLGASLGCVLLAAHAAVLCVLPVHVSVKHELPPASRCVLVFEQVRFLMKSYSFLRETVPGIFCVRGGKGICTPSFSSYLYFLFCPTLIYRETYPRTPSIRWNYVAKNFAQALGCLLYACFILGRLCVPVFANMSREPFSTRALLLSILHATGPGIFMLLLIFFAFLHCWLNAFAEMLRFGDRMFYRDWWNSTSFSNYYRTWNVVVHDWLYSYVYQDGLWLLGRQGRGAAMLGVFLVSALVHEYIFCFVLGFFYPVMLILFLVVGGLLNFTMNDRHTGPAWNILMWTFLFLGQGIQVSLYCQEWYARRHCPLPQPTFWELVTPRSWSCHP
ASSAY_DETAILS: Inhibition of ACAT from microsomes isolated from rat intestinal mucosal cells
I only need the number, in nM, no unit after it.

Example cases with answers are listed next.
{"QUERY_SMILES": "CCCCCCCN(Cc1ccc(CO)cc1)C(=O)Nc1ccc(F)cc1F", "READOUT_TYPE": "IC50", "UNIT_OF_MEASUREMENT": "nM", "TEST_RESULT": 200}
{"QUERY_SMILES": "CCCCCCCN(Cc1ccc(CCCC(=O)O)cc1)C(=O)Nc1c(C)cc(Cl)cc1C", "READOUT_TYPE": "IC50", "UNIT_OF_MEASUREMENT": "nM", "TEST_RESULT": 1020}
{"QUERY_SMILES": "CCCCCCCN(Cc1ccc(CCSC(C)C)cc1)C(=O)Nc1ccc(F)cc1F", "READOUT_TYPE": "IC50", "UNIT_OF_MEASUREMENT": "nM", "TEST_RESULT": 210}

# return IC50 of CCCCCCCN(Cc1ccc(COCCC(C)C)cc1)C(=O)Nc1c(C)cc(Cl)cc1C (system: fatty acyl CoA:cholesterol acyl transferase (ACAT) (Rattus norvegicus, UniProt Q7TQM4))
130

# return IC50 of CCCCCCCN(Cc1ccc(COC(C)=O)cc1)C(=O)Nc1ccc(F)cc1F (system: fatty acyl CoA:cholesterol acyl transferase (ACAT) (Rattus norvegicus, UniProt Q7TQM4))
120

----------
System: cholesterol absorption
ASSAY_DETAILS: Inhibition of cholesterol absorption in rats fed 1% cholesterol:0.5% cholic acid diet
Assay type: in vivo, male Sprague-Dawley rats
STATED_CONDITIONS: po, 336 h; rat; dose .03% of the diet, 2 weeks; read-out: SS (serum sterol), percentage of control values
Protocol: Inhibition of cholesterol absorption was determined by feeding male Sprague-Dawley rats, weighing 150-170 g, a 1% cholesterol:0.5% cholic acid diet for 2 weeks. […] Blood was collected, centrifuged at […] for 10 minutes at 4° C.; and the serum was then analyzed for cholesterol and triglycerides enzymatically by the method of Trinder, P., Analyst, 77, 321 (1952) on a Centrifichem 400 analyzer. […]
Response field label: string, one of y (response vs control in vivo at 0.03 % strictly below 60%) or n.

Worked examples, 4 compounds total:
{"QUERY_SMILES": "CC(C)(C)CCN(Cc1ccc(Cl)cc1)C(=O)Nc1c(Cl)cc(Cl)cc1Cl", "ASSIGNED_CATEGORY": "n"}
{"QUERY_SMILES": "CCCCCCCN(CCc1ccccc1)C(=O)Nc1ccc(Cl)cc1C", "ASSIGNED_CATEGORY": "n"}
{"QUERY_SMILES": "COc1ccccc1CN(Cc1ccccc1F)C(=O)Nc1ccc(C)cc1C", "ASSIGNED_CATEGORY": "y"}
{"QUERY_SMILES": "CC(C)(C)CCN(Cc1cccs1)C(=O)Nc1ccc(F)cc1F", "ASSIGNED_CATEGORY": "n"}

Please look at the following compound next.
Given CCCCCCCN(Cc1ccc(OCCCC)cc1)C(=O)Nc1cccc(C(F)(F)F)c1 , is recorded response vs control in vivo at 0.03 % strictly lower than 60%?
n
